Test: Half life in mouse
Type: ADME, organism-based
Details: in vivo

[
  {
    "compound": "C/C=C/[C@@H]1[C@H]2C[C@@H](C)CC[C@@H]2C(C)=C[C@H]1C(=O)c1c(O)c(-c2ccc(O)cc2)c[nH]c1=O [ILICICOLIN H]",
    "half-life": "2.5 h"
  }
]

* * *

Assay: Inhibition of Saccharomyces cerevisiae MY 2141 NADH:cytochrome c oxidoreductase
pIC50: −log10 of the molar value.
measuredAttribute: pIC50

[
  {
    "compound": "C/C=C/[C@@H]1[C@H]2C[C@@H](C)CC[C@@H]2C(C)=C[C@H]1C(=O)c1c(O)c(-c2ccc(O)cc2)c[nH]c1=O [ILICICOLIN H]",
    "dataValue": 8.64
  }
]

* * *

Assay: Oral bioavailability in mouse
Type: ADME, organism-based
Conditions: in vivo
measuredAttribute: bioavailability

[
  {
    "cpdSmiles": "C/C=C/[C@@H]1[C@H]2C[C@@H](C)CC[C@@H]2C(C)=C[C@H]1C(=O)c1c(O)c(-c2ccc(O)cc2)c[nH]c1=O",
    "dataValue": "72%"
  }
]

* * *

Assay: Clearance in mouse
Assay type: ADME, organism-based
Details: in vivo
measuredAttribute: clearance (mL/min/kg)

[
  {
    "cpdSmiles": "C/C=C/[C@@H]1[C@H]2C[C@@H](C)CC[C@@H]2C(C)=C[C@H]1C(=O)c1c(O)c(-c2ccc(O)cc2)c[nH]c1=O",
    "measuredAttribute": "clearance",
    "dataValue": 16
  }
]
